METHOD: Pharmacokinetic study in rats
Format: in vivo, Sprague‐Dawley rats
RUN CONDITIONS: male, Sprague-Dawley, rat, in vivo, intravenous, 0.2 mg/kg, mean ± SD (n = 3)
VALUE TYPE: AUC(0-inf) (ng·h/mL)
Enter your answer as a number in ng·h/mL; do not include the unit.

Consider the molecule shown here: N=C(N)Nc1ccc(C(=O)Oc2ccc3c(c2)OC[C@H]3CC(=O)N[C@@H](CC(=O)O)C(=O)O)cc1.O What is its recorded AUC(0-inf)?
304

---

TESTED TARGET: plasmin (Homo sapiens)
Sequence (P00747 581-810 limits assumed, species assumed): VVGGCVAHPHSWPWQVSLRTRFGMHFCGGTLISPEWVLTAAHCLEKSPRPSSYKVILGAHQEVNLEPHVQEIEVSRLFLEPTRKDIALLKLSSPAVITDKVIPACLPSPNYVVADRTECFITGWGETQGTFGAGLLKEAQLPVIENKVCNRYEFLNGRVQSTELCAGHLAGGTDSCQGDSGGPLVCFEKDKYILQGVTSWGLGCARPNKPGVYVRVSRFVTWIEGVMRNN
Sequence (P00747 97-580 partner limits assumed, species assumed): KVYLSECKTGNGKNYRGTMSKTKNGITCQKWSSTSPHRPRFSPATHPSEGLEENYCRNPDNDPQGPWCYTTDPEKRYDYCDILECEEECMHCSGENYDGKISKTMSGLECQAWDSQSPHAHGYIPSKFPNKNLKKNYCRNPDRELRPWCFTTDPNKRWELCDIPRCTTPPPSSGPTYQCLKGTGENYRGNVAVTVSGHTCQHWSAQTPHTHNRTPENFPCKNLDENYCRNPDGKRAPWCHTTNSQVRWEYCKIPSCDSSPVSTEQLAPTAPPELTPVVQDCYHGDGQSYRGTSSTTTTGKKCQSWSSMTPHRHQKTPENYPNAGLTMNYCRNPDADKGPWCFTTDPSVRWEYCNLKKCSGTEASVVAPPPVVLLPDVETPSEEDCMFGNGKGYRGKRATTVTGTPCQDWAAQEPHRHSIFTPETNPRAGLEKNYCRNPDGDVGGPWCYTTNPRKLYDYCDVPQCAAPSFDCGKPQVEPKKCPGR
VALUE TYPE: pIC50
Please express pIC50 as -log10 of the molar concentration.

Form: Entry = N=C(N)Nc1ccc(C(=O)Oc2ccc3c(c2)OC[C@H]3CC(=O)N[C@@H](CC(=O)O)C(=O)O)cc1.O | System = plasmin (Homo sapiens) | pIC50 = ____
6.34

---

METHOD: Pharmacokinetic study in rats
Type: in vivo, Sprague‐Dawley rats
RUN CONDITIONS: male, Sprague-Dawley, rat, in vivo, oral, 10 mg/kg, mean ± SD (n = 3)
Protocol: Male Sprague‐Dawley rats were obtained from Charles River Laboratories Japan, Inc. (Yokohama, Japan). A pharmacokinetic study was conducted when the animals were 8 weeks old. For oral administration, SCO‐792 was suspended in a 0.5% (w/v) methylcellulose solution. […] The blood was collected at the indicated time points, and the plasma concentrations of SCO‐792 were determined by high‐performance liquid chromatography/tandem mass spectrometry.
VALUE TYPE: half-life (h)
Please respond with the number in h and leave the unit unwritten.

// query half-life value for entry N=C(N)Nc1ccc(C(=O)Oc2ccc3c(c2)OC[C@H]3CC(=O)N[C@@H](CC(=O)O)C(=O)O)cc1.O
4.4

---

METHOD: Pharmacokinetic study in rats
Type: in vivo, Sprague‐Dawley rats
RUN CONDITIONS: male, Sprague-Dawley, rat, in vivo, oral, 10 mg/kg, mean ± SD (n = 3)
Description: Male Sprague‐Dawley rats were obtained from Charles River Laboratories Japan, Inc. (Yokohama, Japan). A pharmacokinetic study was conducted when the animals were 8 weeks old. For oral administration, SCO‐792 was suspended in a 0.5% (w/v) methylcellulose solution. […] The blood was collected at the indicated time points, and the plasma concentrations of SCO‐792 were determined by high‐performance liquid chromatography/tandem mass spectrometry.
VALUE TYPE: AUC(0-inf)

Consider the molecule N=C(N)Nc1ccc(C(=O)Oc2ccc3c(c2)OC[C@H]3CC(=O)N[C@@H](CC(=O)O)C(=O)O)cc1.O and give its measured AUC(0-inf).
49.8 ng·h/mL

---

METHOD: Pharmacokinetic study in rats
Format: in vivo, Sprague‐Dawley rats
RUN CONDITIONS: male, Sprague-Dawley, rat, in vivo, intravenous, 0.2 mg/kg, mean ± SD (n = 3), read-out: AUC0–24 h
VALUE TYPE: AUC(0-t) (ng·h/mL)
Express your answer in ng·h/mL, writing the number without its unit.

AUC(0-t) for N=C(N)Nc1ccc(C(=O)Oc2ccc3c(c2)OC[C@H]3CC(=O)N[C@@H](CC(=O)O)C(=O)O)cc1.O ?
303

---

TESTED TARGET: plasma kallikrein (Homo sapiens)
Sequence (P03952 391-638 limits assumed, species assumed): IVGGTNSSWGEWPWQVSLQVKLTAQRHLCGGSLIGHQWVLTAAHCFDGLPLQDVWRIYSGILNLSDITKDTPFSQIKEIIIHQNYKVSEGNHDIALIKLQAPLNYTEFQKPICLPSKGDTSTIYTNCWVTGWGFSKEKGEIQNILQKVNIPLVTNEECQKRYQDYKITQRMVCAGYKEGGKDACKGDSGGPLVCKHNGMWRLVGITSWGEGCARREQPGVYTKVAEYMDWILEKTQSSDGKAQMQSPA
Sequence (P03952 20-390 partner limits assumed, species assumed): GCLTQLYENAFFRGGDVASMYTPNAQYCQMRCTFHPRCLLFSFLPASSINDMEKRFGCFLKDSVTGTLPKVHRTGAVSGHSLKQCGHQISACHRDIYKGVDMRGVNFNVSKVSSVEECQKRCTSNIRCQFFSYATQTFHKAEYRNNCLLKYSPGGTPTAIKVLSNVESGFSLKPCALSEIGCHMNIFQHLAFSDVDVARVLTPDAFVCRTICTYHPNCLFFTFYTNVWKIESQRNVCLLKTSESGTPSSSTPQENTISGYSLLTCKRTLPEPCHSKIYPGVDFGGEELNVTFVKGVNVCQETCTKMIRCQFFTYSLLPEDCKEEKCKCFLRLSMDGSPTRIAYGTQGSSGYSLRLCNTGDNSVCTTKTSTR
METHOD: Serine protease selectivity: plasma kallikrein (Panlabs Enzymatic Assay Services, Eurofins)
VALUE TYPE: pIC50
# pIC50 = -log10(concentration in molar units)

Any idea what pIC50 was measured for N=C(N)Nc1ccc(C(=O)Oc2ccc3c(c2)OC[C@H]3CC(=O)N[C@@H](CC(=O)O)C(=O)O)cc1.O ?
7.80

Where do the numbers come from? From paper PMC6726858.
